These data points were gathered from ChEMBL document CHEMBL2086360.

ASSAY_PROCEDURE: Inhibition of yeast alpha-glucosidase using p-nitrophenyl-alpha-D-glucopyranoside as substrate compound pre-incubated for 10 mins before substrate addition measured after 5 mins by microplate reader
Parameters: species or system Saccharomyces cerevisiae
METRIC: log10(IC50) (log10 of the value in µM)
Log scale reminder: IC50 in µM, then log10 taken.

[[record]]
compound = "O=C(O[C@H]1[C@H](O)[C@@H](CO)OC(O)[C@@H]1OC(=O)c1cc(O)c(O)c(O)c1Oc1cc2c(=O)oc3c(O)c(O)cc4c(=O)oc(c1O)c2c34)c1cc(O)c(O)c(O)c1 (stereo not given in full)"
metric = "log10(IC50)"
numeric_result = 1.88


For O=C(O[C@H]1[C@H](O)[C@@H](CO)OC(O)[C@@H]1OC(=O)c1cc(O)c(O)c(O)c1Oc1c(O)cc2c(=O)oc3c(O)c(O)cc4c(=O)oc1c2c34)c1cc(O)c(O)c(O)c1 (mixture of isomers) , what is its reported log10(IC50)?
0.91

C[C@H]1O[C@H](O[C@H]2[C@H](O)[C@@H](O)[C@@H](O[C@H]3[C@H](O)[C@@H](O)C(O)O[C@@H]3CO)O[C@@H]2CO)[C@H](O)[C@@H](O)[C@@H]1N[C@H]1C=C(CO)[C@@H](O)[C@H](O)[C@H]1O (stereo not given in full) , same question.
2.32

O=C(O[C@H]1[C@@H]2OC(=O)c3cc(O)c(O)c(O)c3-c3c(cc(O)c(O)c3O)C(=O)OC[C@H]2OC(O)[C@@H]1OC(=O)c1cc(O)c(O)c(O)c1Oc1cc2c(=O)oc3c(O)c(O)cc4oc(=O)c(c1O)c2c43)c1cc(O)c(O)c(O)c1 (stereo not given in full) , same question.
1.09

`COc1cc2oc(-c3ccc(O)cc3)cc(=O)c2c(O)c1[C@@H]1O[C@H](CO)[C@@H](O)[C@H](O)[C@H]1O` , same question.
2.16
